READOUT_LABEL: Ki

Reading of Ki for COC(=O)C1C(c2ccc(OC)c(OC)c2)CC2CCC1N2C (configuration not stated) with Sodium-dependent serotonin transporter (Homo sapiens, UniProt P31645): 46 nM

Reported Sodium-dependent serotonin transporter (Homo sapiens, UniProt P31645) Ki for item COC(=O)C1C(c2ccc(C(C)=O)c(C(C)=O)c2)CC2CCC1N2C (stereo in doubt; 10) was 168 nM

Record COC(=O)C1C(c2ccc(O)c(O)c2)CC2CCC1N2C (stereo in doubt; 8) has Sodium-dependent serotonin transporter (Homo sapiens, UniProt P31645) Ki equal to 10000 nM

Response field Ki (Sodium-dependent serotonin transporter (Homo sapiens, UniProt P31645)) for item COC(=O)C1C(c2ccc(O)c(O)c2)CC2CCC1N2C (stereo in doubt; 7) : 271 nM

Observed Ki, Sodium-dependent serotonin transporter (Homo sapiens, UniProt P31645), COC(=O)C1=C(c2ccc(C(C)=O)c(C(C)=O)c2)CC2CCC1N2C (configuration not stated) : > 10000 nM

Entry COC(=O)C1C(c2ccc(C(C)=O)c(C(C)=O)c2)CC2CCC1N2C (stereo in doubt; 11) ; assay system Sodium-dependent serotonin transporter (Homo sapiens, UniProt P31645); Ki recorded at 704 nM

Observed Ki, Sodium-dependent serotonin transporter (Homo sapiens, UniProt P31645), COC(=O)C1=C(c2ccc(O)c(O)c2)CC2CCC1N2C (configuration not stated) : > 10000 nM

###

# TARGET_SYSTEM: Sodium-dependent noradrenaline transporter (Homo sapiens, UniProt P23975)
# Sequence (P23975 whole entry): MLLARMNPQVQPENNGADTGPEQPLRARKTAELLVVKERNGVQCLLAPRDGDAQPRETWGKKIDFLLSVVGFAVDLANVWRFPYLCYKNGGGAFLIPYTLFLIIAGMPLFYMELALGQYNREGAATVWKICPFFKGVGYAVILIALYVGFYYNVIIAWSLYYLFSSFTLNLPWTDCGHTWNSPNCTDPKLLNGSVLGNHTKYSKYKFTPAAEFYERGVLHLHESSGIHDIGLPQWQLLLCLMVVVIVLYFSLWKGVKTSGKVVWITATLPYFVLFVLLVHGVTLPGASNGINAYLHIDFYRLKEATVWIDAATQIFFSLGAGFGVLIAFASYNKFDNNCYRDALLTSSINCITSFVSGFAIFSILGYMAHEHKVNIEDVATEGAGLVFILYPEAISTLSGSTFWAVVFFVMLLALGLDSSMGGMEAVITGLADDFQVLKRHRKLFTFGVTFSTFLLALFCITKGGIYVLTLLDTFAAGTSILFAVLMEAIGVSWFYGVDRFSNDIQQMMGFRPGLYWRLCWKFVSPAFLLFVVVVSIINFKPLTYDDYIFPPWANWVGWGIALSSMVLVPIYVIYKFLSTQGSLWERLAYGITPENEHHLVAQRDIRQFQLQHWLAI
# Assay type: cell-based, HEK293
READOUT_LABEL: Ki (µM)
API: value field is a number in µM; no unit string.

Briefly, Ki measured for COC(=O)C1C(c2ccc(OC)c(OC)c2)CC2CCC1N2C (stereo unspecified) : 4.5

What the record says about COC(=O)C1C(c2ccc(O)c(O)c2)CC2CCC1N2C (stereo in doubt; 7) : Ki is 2.96

Briefly, Ki measured for COC(=O)C1C(c2ccc(O)c(O)c2)CC2CCC1N2C (stereo in doubt; 8) : 3.06

###

# TARGET_SYSTEM: Sodium-dependent dopamine transporter (Homo sapiens, UniProt Q01959)
# Sequence (Q01959 whole entry): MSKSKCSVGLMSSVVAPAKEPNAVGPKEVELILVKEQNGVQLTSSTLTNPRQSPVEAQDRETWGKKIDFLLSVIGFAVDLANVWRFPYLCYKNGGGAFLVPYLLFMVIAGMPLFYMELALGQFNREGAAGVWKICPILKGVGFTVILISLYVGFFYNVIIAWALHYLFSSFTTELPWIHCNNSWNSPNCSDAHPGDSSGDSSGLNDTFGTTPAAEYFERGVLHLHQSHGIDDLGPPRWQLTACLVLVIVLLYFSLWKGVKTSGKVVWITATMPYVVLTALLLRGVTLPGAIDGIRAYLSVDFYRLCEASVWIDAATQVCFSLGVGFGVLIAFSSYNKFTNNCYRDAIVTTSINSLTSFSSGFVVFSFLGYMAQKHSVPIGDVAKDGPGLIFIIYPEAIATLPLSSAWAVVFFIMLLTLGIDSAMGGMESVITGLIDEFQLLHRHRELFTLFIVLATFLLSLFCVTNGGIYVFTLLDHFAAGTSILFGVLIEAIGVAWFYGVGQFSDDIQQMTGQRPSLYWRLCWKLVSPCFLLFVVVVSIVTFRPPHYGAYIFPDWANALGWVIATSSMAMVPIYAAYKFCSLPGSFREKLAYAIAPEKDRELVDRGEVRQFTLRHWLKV
# Type: cell-based, HEK293
For each of the compounds below, state its pKi.
Formally, pKi is defined as -log10 of the concentration c, with c in mol/L.

Notebook: COC(=O)C1C(c2ccc(O)c(O)c2)CC2CCC1N2C (stereo in doubt; 7) , pKi read as 5.86

Measured pKi of COC(=O)C1C(c2ccc(O)c(O)c2)CC2CCC1N2C (stereo in doubt; 8) : 6.01

Documented pKi of COC(=O)C1C(c2ccc(OC)c(OC)c2)CC2CCC1N2C (stereo unspecified) : 5.81

###

# TARGET_SYSTEM: UniProtKB P31645
# PROTOCOL_NOTES: Inhibition of [3H]5-HT uptake in HEK cells expressing human SERT
READOUT_LABEL: IC50 (nM)
Answer in nM, number only, no unit symbol.

Lab note: measured IC50 of COC(=O)C1C(c2ccc(O)c(O)c2)CC2CCC1N2C (stereo in doubt; 7) was 308

// field: IC50; key: COC(=O)C1C(c2ccc(OC)c(OC)c2)CC2CCC1N2C (stereo not drawn) ; value = 23

Input COC(=O)C1C(c2ccc(C(C)=O)c(C(C)=O)c2)CC2CCC1N2C (stereo in doubt; 10) . Output IC50: 330

###

# TARGET_SYSTEM: Sodium-dependent dopamine transporter (Homo sapiens, UniProt Q01959)
# Type: cell-based, HEK293
# CONDITION_PARAMETERS: hek293
pKi: −log10 of the molar value.
READOUT_LABEL: pKi

GET /value?item= COC(=O)C1C(c2ccc(C(C)=O)c(C(C)=O)c2)CC2CCC1N2C (stereo in doubt; 10) &field=pKi returns < 5.00

###

Exercise: state measured IC50 for each of the compounds provided.
# TARGET_SYSTEM: Sodium-dependent dopamine transporter (Homo sapiens, UniProt Q01959)
# PROTOCOL_NOTES: Inhibition of [3H]dopamine uptake in HEK cells expressing human DAT
# unit: nM | format: bare number

The recorded IC50 for COC(=O)C1C(c2ccc(O)c(O)c2)CC2CCC1N2C (stereo in doubt; 7) is 507

Lookup result for COC(=O)C1C(c2ccc(O)c(O)c2)CC2CCC1N2C (stereo in doubt; 8) ; measured IC50: 406

Field IC50 (entry COC(=O)C1C(c2ccc(OC)c(OC)c2)CC2CCC1N2C (stereo not drawn) ) reads 1570

###

Give pKi for every item shown.
# TARGET_SYSTEM: Sodium-dependent noradrenaline transporter (Homo sapiens, UniProt P23975)
# Format: cell-based, HEK293
pKi: −log10 of the molar value.

The observed pKi for COC(=O)C1C(c2ccc(C(C)=O)c(C(C)=O)c2)CC2CCC1N2C (stereo in doubt; 11) when tested with Sodium-dependent noradrenaline transporter (Homo sapiens, UniProt P23975) stands at < 5.00

Form field pKi for item COC(=O)C1=C(c2ccc(C(C)=O)c(C(C)=O)c2)CC2CCC1N2C (stereo not drawn) on Sodium-dependent noradrenaline transporter (Homo sapiens, UniProt P23975): < 5.00

GET /values?item= COC(=O)C1=C(c2ccc(O)c(O)c2)CC2CCC1N2C (stereo not drawn) &system= Sodium-dependent noradrenaline transporter (Homo sapiens, UniProt P23975) returns pKi: < 5.00

###

# TARGET_SYSTEM: Sodium-dependent dopamine transporter (Homo sapiens)
# Type: cell-based, HEK293
pKi: −log10 of the molar value.
READOUT_LABEL: pKi

// pKi lookup, compound = COC(=O)C1C(c2ccc(C(C)=O)c(C(C)=O)c2)CC2CCC1N2C (stereo in doubt; 11) , result: < 5.00

Form field pKi, entry COC(=O)C1=C(c2ccc(O)c(O)c2)CC2CCC1N2C (stereo not drawn) : < 5.00

// field: pKi; key: COC(=O)C1=C(c2ccc(C(C)=O)c(C(C)=O)c2)CC2CCC1N2C (stereo not drawn) ; value = < 5.00

// provenance: ChEMBL document CHEMBL1136450
